biological target: recombinant human IL-18 (human, UniProt Q14116 37-193); experiment: cell-based or functional assay
Lab note - cut at 6 nM for IC50, IFNγ release KG-1 cell assay, human IL-18: 1.0 if strictly below, 0.0 if not.

For orientation, consider the following solved cases.
Ask: Please state whether IC50, IFNγ release KG-1 cell assay, human IL-18 is below 6 nM for Antibody 9 scFv (scFv, V domains shown) VH: QVQLQQSGPRLVEPSQTLSLTCTVSGGSISSDGYYWSWIRQPAGKGLEWIGSIYYSGSTYYNPSLKSRVTISGDTPKNQFSLKLSSVTAADTAVYYCARTPAYFGQDRTDFFDVWGRGTLVTVSS VL: DIVMTQSPSTLSASVGDRVTITCRASQGISSWLAWYQQKPGRAPKVLIYKASTLESGVPSRFSGSGSGTDFTLTISSLQPEDFATYYCQQSHHPPWTFGQGTKLEIK
Reply: 1.0

Ask: Dear reviewer, please state whether Antibody 4 scFv (scFv, V domains shown) VH: QVQLQQSGPRLVKPSQTLSLTCTVSGGSISSGGYYWSWIRQPAGKGLEWIGSIYYSGSTYYNPSLKSRVTISGDTPKNQFSLKLSSVTAADTAVYYCARTPAYDGDARADFFDVWGRGTLVTVSS VL: DIVMTQSPSTLSASVGDRVTITCRASQGISSWLAWYQQKPGRAPKVLIYKASTLESGVPSRFSGSGSGTDFTLTISSLQPEDFATYYCQQSHHPNWDFGQGTKLEIK has IC50, IFNγ release KG-1 cell assay, human IL-18 strictly beneath 6 nM.
Reply: 0.0

Ask: Hi there! Is IC50, IFNγ release KG-1 cell assay, human IL-18 for Antibody 2 scFv (scFv, V domains shown) VH: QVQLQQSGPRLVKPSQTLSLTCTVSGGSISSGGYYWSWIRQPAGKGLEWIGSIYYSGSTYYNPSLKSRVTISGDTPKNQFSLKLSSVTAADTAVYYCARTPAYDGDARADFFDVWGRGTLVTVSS VL: DIVMTQSPSTLSASVGDRVTITCRASQGISSWLAWYQQKPGRAPKVLIYKASTLESGVPSRFSGSGSGTDFTLTISSLQPEDFATYYCQDISFPPWTFGQGTKLEIK below 6 nM, do you know?
Reply: 0.0

Ask: Strictly below 6 nM: is that where IC50, IFNγ release KG-1 cell assay, human IL-18 of Antibody 10 scFv (scFv, V domains shown) VH: QVQLQQSGPRLVEPSQTLSLTCTVSGGSISSDGYYWSWIRQPAGKGLEWIGSIYYSGSTYYNPSLRSRVTISGDTPKNQFSLKLSSVTAADTAVYYCARTPAYFGQDRTDFFDVWGRGTLVTVSS VL: DIVMTQSPSTLSASVGDRVTITCRASQGISSWLAWYQQKPGGAPKVLIYKASTLESGVPSRFSGSGSGTDFTLTISSLQPEDFATYYCQQSHHPPWTFSQGTKLEIK sits?
Reply: 1.0

Ask: Dear reviewer, please state whether Antibody 6 scFv (scFv) QVQLQQSGPRLVKPSQTLSLTCTVSGGSISSGGYYWSWIRQPAGKGLEWIGSIYYSGSTYYNPSLKSRVTISGDTPKNQFSLKLSSVTAADTAVYYCARTPAYFGQDRTDFFDVWGRGTLVTVSSDIVMTQSPSTLSASVGDRVTITCRASQGISSWLAWYQQKPGRAPKVLIYKASTLESGVPSRFSGSGSGTDFTLTISSLQPEDFATYYCANIAFPPWTFGQGTKLEIK has IC50, IFNγ release KG-1 cell assay, human IL-18 strictly beneath 6 nM.
Reply: 0.0

Could you now consider this next binder?
Ask: Could you please tell me whether IC50, IFNγ release KG-1 cell assay, human IL-18 recorded for Antibody 3 scFv (scFv, V domains shown) VH: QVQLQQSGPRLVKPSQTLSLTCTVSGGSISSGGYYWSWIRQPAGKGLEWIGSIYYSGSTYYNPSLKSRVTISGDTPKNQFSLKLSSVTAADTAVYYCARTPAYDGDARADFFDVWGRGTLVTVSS VL: DIVMTQSPSTLSASVGDRVTITCRASQGISSWLAWYQQKPGRAPKVLIYKASTLESGVPSRFSGSGSGTDFTLTISSLQPEDFATYYCQQSLYPPWTFGQGTKLEIK is less than 6 nM?
Reply: 0.0
